# TARGET OR TEST SYSTEM: human alpha-synuclein (human, UniProt P37840 1-140)
# MEASUREMENT DESCRIPTION: SPR Biacore 3000, IgG captured by anti-human IgG on CM5 chip
MEASURE: pKd
Remember, pKd is on a log scale: it is -log10 of the molar concentration.

Q: pKd for 7C4 (antibody, V domains shown) VH: QVQLVQSGAEVKKPGASVKVSCKASGYTFTRYWMHWMRQAPGQGPEWIGRIDPNSGTTKYNVNFKTRATLTVDKSTSTAYMELSSLRSEDTAVYYCARLGHYGNLYAMDYWGQGTLVT VL: EIVLTQSPATLSLSPGERATLSCSASSSVSFMHWYQQKPGQAPRRWIYDTSKLASGVPARFSGSGSGTDYTLTISSLEPEDFAVYYCQQWSSNPPTFGQGTKLEIK ?
A: 8.09
